# assay.name: AUCinfinity in Cynomolgus monkey at 10 mg/kg, po measured upto 48 hrs by LC-MS/MS analysis
# Format: ADME, organism-based, Macaca fascicularis
# protocol.conditions: in vivo
Positions of bridges follow the written chain, without caps; N, C: chain ends. Non-standard residues stand in square brackets, D forms with d. Residues, ends and D or L forms follow the SMILES beside them. *: point of attachment. hPhe(3-Cl-4-CF3) = N[C@@H](CCc1ccc(C(F)(F)F)c(Cl)c1)C(=O)O; NMeGly(cPent) = CN[C@H](C(=O)O)C1CCCC1; NMeCha = CN[C@@H](CC1CCCCC1)C(=O)O; NMeD = CN[C@@H](CC(=O)O)C(=O)O; NMeL = CN[C@@H](CC(C)C)C(=O)O; NMeA = CN[C@@H](C)C(=O)O; Piperidide = C1CCN(*)CC1; Ac5c = NC1(C(=O)O)CCCC1; Aze = O=C(O)[C@@H]1CCN1; Sar = CNCC(=O)O
property.label: AUC(0-inf) (ng·h/mL)
Field format: number, assumed ng·h/mL, no unit text.

Look up AUC(0-inf): CC[C@H](C)[C@@H]1NC(=O)[C@H](CC(C)C)N(C)C(=O)C[C@@H](C(=O)N2CCCCC2)N(C)C(=O)[C@H](C2CCCC2)N(C)C(=O)C2(CCCC2)NC(=O)[C@@H]2CCCN2C(=O)[C@H](CCc2ccc(C(F)(F)F)c(Cl)c2)NC(=O)CN(C)C(=O)[C@H](CC2CCCCC2)N(C)C(=O)[C@@H]2CCN2C(=O)[C@H](C)N(C)C1=O ([NMeL]I[NMeA][Aze][NMeCha][Sar][hPhe(3-Cl-4-CF3)]P[Ac5c][NMeGly(cPent)][NMeD]-Piperidide; lactam N-11) 10700
